biological target: Phosphatidylinositol 4,5-bisphosphate 3-kinase catalytic subunit gamma isoform (Homo sapiens, UniProt P48736); test: Inhibition of PI3Kgamma (unknown origin) using PIP2 as substrate measured after 15 mins in presence of [33P]ATP by scintillation counting method
Sequence (P48736 whole entry, canonical isoform): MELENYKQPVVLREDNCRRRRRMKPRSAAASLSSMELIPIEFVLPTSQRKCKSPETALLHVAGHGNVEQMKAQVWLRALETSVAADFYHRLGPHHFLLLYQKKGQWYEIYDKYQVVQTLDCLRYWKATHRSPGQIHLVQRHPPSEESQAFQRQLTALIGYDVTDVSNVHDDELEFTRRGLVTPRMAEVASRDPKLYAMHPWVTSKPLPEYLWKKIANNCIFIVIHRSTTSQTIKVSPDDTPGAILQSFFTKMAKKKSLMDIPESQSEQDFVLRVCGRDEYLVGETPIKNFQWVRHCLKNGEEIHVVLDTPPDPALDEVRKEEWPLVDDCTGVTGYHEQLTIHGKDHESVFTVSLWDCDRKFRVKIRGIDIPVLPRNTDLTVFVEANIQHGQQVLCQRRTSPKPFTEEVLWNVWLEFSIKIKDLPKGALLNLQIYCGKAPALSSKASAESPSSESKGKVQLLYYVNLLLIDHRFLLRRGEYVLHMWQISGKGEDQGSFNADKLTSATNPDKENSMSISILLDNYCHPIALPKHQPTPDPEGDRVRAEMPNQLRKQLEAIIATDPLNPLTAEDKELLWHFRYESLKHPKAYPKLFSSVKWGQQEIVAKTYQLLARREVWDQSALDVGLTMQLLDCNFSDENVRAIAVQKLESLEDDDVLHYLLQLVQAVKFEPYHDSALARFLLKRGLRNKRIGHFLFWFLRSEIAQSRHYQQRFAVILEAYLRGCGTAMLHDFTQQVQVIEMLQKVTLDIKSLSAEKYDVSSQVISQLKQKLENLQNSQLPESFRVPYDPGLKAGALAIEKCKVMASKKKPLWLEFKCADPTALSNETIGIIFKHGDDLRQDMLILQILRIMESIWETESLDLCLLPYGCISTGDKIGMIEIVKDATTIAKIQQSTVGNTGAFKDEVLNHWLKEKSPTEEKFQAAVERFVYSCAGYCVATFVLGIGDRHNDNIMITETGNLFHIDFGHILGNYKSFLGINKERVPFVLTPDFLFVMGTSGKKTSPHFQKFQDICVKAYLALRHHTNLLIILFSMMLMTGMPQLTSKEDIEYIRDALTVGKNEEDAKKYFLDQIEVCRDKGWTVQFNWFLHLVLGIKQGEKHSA
MEASURED ATTRIBUTE: pKi
Value format note: pKi is -log10 of concentration (mol/L); just state the number.

Ask: // Input: COc1cc(-c2cc3c(c(C)n2)C(=O)N(c2cnn(CC(F)(F)F)c2)C3)cnc1OC . Output its pKi only.
Reply: 7.85

###

biological target: Phosphatidylinositol 4,5-bisphosphate 3-kinase catalytic subunit gamma isoform (Homo sapiens, UniProt P48736); test: Inhibition of PI3Kgamma in human THP1 cells assessed as reduction in MCP1-induced Akt phosphorylation at Thr308/Ser473 residue preincubated for 1 hr followed by MCP1 stimulation for 3 mins by FACS analysis
I'd be grateful if you could share measured pIC50 for these entries.
Please note pIC50 is a logarithmic value: minus log10 of concentration in mol/L. Answer with that number alone.

Ask: Read off the recorded pIC50 for COc1cc(-c2cc3c(c(C)n2)C(=O)N(c2cnn(CC(F)(F)F)c2)C3)cnc1OC
Reply: 6.57

Ask: State its pIC50 for this compound: COc1cc(-c2ccc3c(n2)CN(c2cnn(CC(F)(F)F)c2)C3=O)cnc1OC
Reply: 7.33
